Tested on: TK-10
Measurement description: NCI tumour cell line growth inhibition, 48 h
Activity calls are given as the source filed them. No stated cut-off is given here; in the data, active = GI50 up to about 1.1 µM and inactive = higher.
Respond only with the outcome that fits, drawn from active, inactive

Compound: Nc1nc(Cl)cc(OCC2(CO)CC=CC2)n1
Target desc: TK-10
Assigned class: inactive
--
Compound: CC(C)CC[C@H](O)[C@@H](C)[C@H]1[C@@H](OC2OC(C)C(O)C(O)C2O)C[C@H]2[C@@H]3CC=C4C[C@@H](O)CC[C@]4(C)[C@H]3[C@@H](O)C[C@]12C (some centres not stated)
Target desc: TK-10
Assigned class: active
--
Compound: Cc1cc(C)nc(NC(=S)Nc2cccc(Cl)c2)c1
Target desc: TK-10
Assigned class: inactive
--
Compound: CC1CN(CCO)CCN1c1ccccc1 (configuration not stated)
Target desc: TK-10
Assigned class: inactive

In this assay, the call recorded for CC(C)(C)OC(=O)N(O)CCCn1cnc2c(N)ncnc21 was what?
inactive

In this assay, the call recorded for COc1ccccc1NCc1nnc(CCCCCCCCc2nnc(CNc3ccccc3OC)o2)o1 was what?
inactive

In this assay, the call recorded for Cc1cc(O)c2c(c1)CC(O)C1=C2C(=O)c2c(O)ccc(OC3CC(O)C(OC4CC(OC5CCC(O)C(C)O5)C(O)C(C)O4)C(C)O3)c2C1=O (configuration not stated) was what?
inactive

In this assay, the call recorded for C=C(C)[C@H]1CC23C(=O)C(C(=O)C(C)C)=C(O)[C@](C)(C[C@H]2C1(C)C)C3=O was what?
inactive

In this assay, the call recorded for CCOC(=O)/C=C1/Nc2cc(F)c(F)cc2NC1=O was what?
inactive

In this assay, the call recorded for C=CC(CBr)CCC(Br)C(C)(C)Br (configuration not stated) was what?
inactive

In this assay, the call recorded for COC(=O)c1nc(C(=O)OC)c2c([nH]c3ccccc32)c1C(=O)OC was what?
inactive

In this assay, the call recorded for COC(=O)CCCC(=O)NC1=C(Nc2ccccc2)C(=O)c2ccccc2C1=O was what?
inactive

====

Test system: DU-145
Measurement description: NCI tumour cell line growth inhibition, 48 h
Active and inactive are the calls of the source. No stated cut-off is given here; in the data, active = GI50 up to about 1.1 µM and inactive = higher.
Readout type: GI50

Some compounds with recorded GI50:
Compound: OC(C/C(=N\N=C(/CC(O)(C(F)(F)F)C(F)(F)F)c1ccccc1)c1ccccc1)(C(F)(F)F)C(F)(F)F
Result: > 10 µM (inactive)

Compound: CC(=O)/N=C1\NC(=O)/C(=C/c2ccccc2Cl)N1C
Result: > 100 µM (inactive)

Compound: Cc1cc(O)c2c(c1)CC(O)C1=C2C(=O)c2c(O)ccc(OC3CC(O)C(OC4CC(OC5CCC(O)C(C)O5)C(O)C(C)O4)C(C)O3)c2C1=O (centres undefined)
Result: 1.72 µM (inactive)

Give a short answer stating reported GI50 for CC1(C)OC[C@@H](C[C@H](O)COCc2ccccc2)O1 .
> 100 µM (inactive)

Give a short answer stating reported GI50 for CC(C)(C)OC(=O)N1C/C=C\C(=O)C2(OCCO2)c2ccccc21 .
28.6 µM (inactive)

Give a short answer stating reported GI50 for O=C1C=C(c2ccccc2)O/C1=C/C(=O)c1ccc(Cl)cc1 .
37.3 µM (inactive)

====

System: OVCAR-4
Measurement description: NCI tumour cell line growth inhibition, 48 h
The source made the active and inactive calls. No stated cut-off is given here; in the data, active = GI50 up to about 1.1 µM and inactive = higher.
Let's look at some molecules and their measured GI50.

Give a short answer stating reported GI50 for Nc1nc(N)c2ncn(CC3CCC(CO)C3)c2n1 (stereo unspecified) .
> 100 µM (inactive)

====

Test system: MDA-MB-231
Measurement description: NCI tumour cell line growth inhibition, 48 h
Activity calls are given as the source filed them. Rule as the data show it: active = GI50 up to about 1.1 µM and inactive = higher.
Readout type: GI50

Compound: CCO/C(Cc1ccc(Cl)cc1)=N/NC(N)=S
Readout type: GI50
Result: > 100 µM (inactive)
--
Compound: CC(=O)/N=C1\NC(=O)/C(=C/c2ccccc2Cl)N1C
Readout type: GI50
Result: > 100 µM (inactive)
--
Compound: COc1cnc2cc(C(=O)O)c3c([N+](=O)[O-])cccc3c2c1
Readout type: GI50
Result: > 100 µM (inactive)
--
Compound: COC(=O)CCC(=O)NC1=C(Nc2ccccc2)C(=O)c2ccccc2C1=O
Readout type: GI50
Result: 9.66 µM (inactive)

Please indicate recorded GI50 of Nc1nc(N)c2ncn(CC3CCC(CO)C3)c2n1 (stereo not given) measured with MDA-MB-231.
> 100 µM (inactive)

Please indicate recorded GI50 of CC1=Nc2nc(Cl)cn2C(=O)C1(Cl)Cl measured with MDA-MB-231.
> 10 µM (inactive)

====

System: HOP-62
Measurement description: NCI tumour cell line growth inhibition, 48 h
Activity calls are given as the source filed them. Rule as the data show it: active = GI50 up to about 1.1 µM and inactive = higher.
Readout type: GI50

Some compounds with recorded GI50:
Compound: COc1cc(C(=O)O)c(-c2cc3c(cc2C=O)OCO3)c(OC)c1OC
GI50: > 10 µM (inactive)
//
Compound: COC(=O)C[S+]([O-])c1ccccc1 (stereo unspecified)
GI50: 32.6 µM (inactive)
//
Compound: COc1c2c(c3ccccc3c1O)C1C=CC2C1 (stereo unspecified)
GI50: 16.1 µM (inactive)
//
Compound: CCCC(Sc1ccccc1)P(=O)(c1ccccc1)c1ccccc1 (stereo unspecified)
GI50: 46.6 µM (inactive)
//
Compound: COC(=O)N/N=C(/CCN1CCCC1)CC(c1ccccc1)c1c(O)c2ccccc2oc1=O (stereo unspecified)
GI50: > 100 µM (inactive)
//
Compound: COc1cc(CNc2nc3c(NC(C)=O)cc(C(F)(F)F)cc3nc2-c2ccccc2)cc(OC)c1OC
GI50: > 100 µM (inactive)
//
Compound: N#CC(C#N)/N=C/c1ccncc1
GI50: > 100 µM (inactive)
//
Compound: O=c1oc(-c2ccccc2)c(-c2ccccc2)n1-c1ccc(Br)cc1
GI50: 33.2 µM (inactive)
//
Compound: C=C1C(=O)C=C2C=C3C(=O)C(C)(C)C[C@]3(O)C12C (stereo partly specified)
GI50: 22.5 µM (inactive)
//
Compound: O=S1(=O)N=C(NCc2c[nH]c3ccccc23)N(c2ccccc2)c2ccncc21
GI50: 30 µM (inactive)

Give a short answer stating reported GI50 for CC12CCC(C(=O)OC1=O)C(C)(C)O2 (stereo unspecified) .
> 100 µM (inactive)

====

Test system: HOP-62
Measurement description: NCI tumour cell line growth inhibition, 48 h
Active and inactive are the calls of the source. No stated cut-off is given here; in the data, active = GI50 up to about 1.1 µM and inactive = higher.
Readout type: GI50

Molecule: COC(=O)C1C(O)C(C)C(O)C(C)C=C(C)C2=C3C(=C(C)C(=O)c4c(O)c(c(C)c(OC(C)=O)c43)NC(=O)C(C)=C/C=C\C(C)C(O)C(C)C1O)OCO2 (stereo not drawn)
GI50: > 100 µM (inactive)

Molecule: C=C1CCC(O)C/C1=C/C=C1\CCCC2(C)C1CCC2C(C)CCCC(C)C (stereo not drawn)
GI50: 19.5 µM (inactive)

Molecule: Cc1ccc(/N=N/c2cc(=O)[nH]c(=O)[nH]2)cc1C
GI50: 17.7 µM (inactive)

Molecule: O=C1c2ccccc2C(=O)c2c(NCCNCCO)ccc(O)c21
GI50: 3.21 µM (inactive)

Please indicate recorded GI50 of Oc1ccccc1-n1nc2ccc3nonc3c2n1 measured with HOP-62.
90.2 µM (inactive)

Please indicate recorded GI50 of CCOC(=O)c1c(SCC#N)n(-c2ccccc2)c(=S)n(-c2ccccc2)c1=O measured with HOP-62.
88.1 µM (inactive)

Please indicate recorded GI50 of CC(=O)OC[C@@]1(C)[C@@H]2[C@@H]3[C@@]4(CO[C@]3(C)C(=O)[C@@]3(OC(C)=O)C[C@H](C)[C@H](OC(C)=O)[C@@H]3[C@H]4OC(C)=O)[C@H](OC(=O)c3ccccc3)C[C@@H]21 measured with HOP-62.
> 100 µM (inactive)

Please indicate recorded GI50 of O[C@@H]1C=C[C@]23CCN(Cc4cc5c(cc42)OCO5)[C@@H]3C1 measured with HOP-62.
92 µM (inactive)

====

Test system: HOP-62
Measurement description: NCI tumour cell line growth inhibition, 48 h
Activity calls are given as the source filed them. Cut-off read from the data, not from the text of the source: active = GI50 up to about 1.1 µM and inactive = higher. Numbered stars: 1 amine (or outer) side, 2 acyl side, 3 side chain; on linkers, the order of the positions; unused ones are H or OH. Bridge positions count the residues as written; N and C are the ends. Square brackets hold non-standard residues; d marks the D form. Peptide text beside a SMILES is read from it. I, II: the chains in the order shown. Actinocin(9to1) = Cc1c2oc3c(C)ccc(C(=O)[*:1])c3nc-2c(C(=O)[*:2])c(N)c1=O; X48 = O=C1CC(C(=O)[*:2])N([*:1])C1; NMeV = CN[CH](C(=O)O)C(C)C; Sar = CNCC(=O)O
Respond only with the outcome that fits, drawn from label 1 for active, label 0 for inactive

Examples with answers:
Compound: COC(=O)C1C(=O)C(C(=O)OC)C2CCC1N2C (stereo not drawn)
Assigned class: label 0
//
Compound: COc1cnc2cc(C(=O)O)c3c([N+](=O)[O-])cccc3c2c1
Assigned class: label 0

In this assay, the call recorded for Cc1c2oc3c(C)ccc(C(=O)NC4C(=O)NC(C(C)C)C(=O)N5CC(=O)CC5C(=O)N(C)CC(=O)N(C)C(C(C)C)C(=O)OC4C)c3nc-2c(C(=O)NC2C(=O)NC(C(C)C)C(=O)N3CC(=O)CC3C(=O)N(C)CC(=O)N(C)C(C(C)C)C(=O)OC2C)c(N)c1=O (stereo not drawn) (I: TV[X48][Sar][NMeV] / II: TV[X48][Sar][NMeV]; ester I:1-I:C, II:1-II:C; linker I:N-II:N via Actinocin(9to1); configuration not given here) was what?
label 1

In this assay, the call recorded for C/C=C/C=C/[C@H]1Cc2cc(O)cc(O)c2O1 was what?
label 0

In this assay, the call recorded for COC1=CC(C2c3cc4c(cc3[C@@H](Nc3ccc([N+](=O)[O-])cc3)C3COC(=O)[C@H]23)OCO4)=CC(=O)C1=O (stereo partly drawn) was what?
label 1
